System: Hennes-20 cells
Assay: Hennes-20 oncology screen (low vs high plating density, alamar Blue)
Type: cell-based
Settings: 72 h, Hennes-20 cells, 72 hours compound incubation, alamar Blue; read-out: EC50
Experimental: All compounds mentioned as active were tested in Hennes. Select hits from the Hennes screen were sent for additional anti-cancer testing. […] To conduct the Hennes-20 screen, two 96 well plates were seeded with Hennes 20 cells in parallel where one was plated at a density of 500 cells/well and the other was plated at a density of 15,000 cells/well. […] Plates were then read at 530/590. […]
pEC50: −log10 of the molar value.
endpoint: pEC50

compound=CC(C)(C)CNc1ncnc2cc(N3CCN(c4ccc5c(NCCc6cccnc6)ncnc5c4)CC3)ccc12 measured_result=5.60
compound=CC(C)CCNc1ncnc2cc(N3CCN(c4ccc5c(NCCC6CCCC6)ncnc5c4)CC3)ccc12 measured_result=6.30
compound="CC(C)CCNc1cc(N2CCN(c3ccc4c(NCC(C)(C)C)ncnc4c3)CC2C)cc2ncncc12 (stereo not drawn)" measured_result=5.60

----------
Test system: Hennes-20 cells
Assay: Hennes-20 oncology screen (low vs high plating density, alamar Blue)
Type: cell-based
Settings: 72 h, Hennes-20 cells, 72 hours compound incubation, alamar Blue; read-out: EC50
Description: All compounds mentioned as active were tested in Hennes. Select hits from the Hennes screen were sent for additional anti-cancer testing. […] To conduct the Hennes-20 screen, two 96 well plates were seeded with Hennes 20 cells in parallel where one was plated at a density of 500 cells/well and the other was plated at a density of 15,000 cells/well. […] Plates were then read at 530/590. […]
pEC50: −log10 of the molar value.
endpoint: pEC50

compound="CN1CCN(CCNc2ncnc3cc(N4CCN(c5ccc6c(NCC(C)(C)C)ncnc6c5)CC4)ccc23)CC1 [Compound 75]" endpoint=pEC50 bound_type=< measured_result=5.60
compound="CC(C)(C)CNc1ncnc2cc(N3CCN(c4ccc5c(NCCc6ccccc6)ncnc5c4)CC3)ccc12 [Compound 58]" endpoint=pEC50 bound_type== measured_result=4.90
compound="CCN(CCN(CC)c1ccc2c(NCCC(C)C)ncnc2c1)c1ccc2c(NCCC(C)C)ncnc2c1 [Compound 88]" endpoint=pEC50 bound_type=> measured_result=4.90
compound="CC(C)(C)CNc1ncnc2cc(N3CCN(c4ccc5c(N6CCC(C)(C)CC6)ncnc5c4)CC3)ccc12 [Compound 74]" endpoint=pEC50 bound_type== measured_result=6.30
compound="CC(C)CCNc1ncnc2cc(N3CCN(c4ccc5c(NCCC(C)C)ncnc5c4)CC3)ccc12 [Compound 6]" endpoint=pEC50 bound_type=> measured_result=6.30
compound="c1cncc(CCNc2ncnc3cc(N4CCN(c5ccc6c(NCCc7cccnc7)ncnc6c5)CC4)ccc23)c1 [Compound 41]" endpoint=pEC50 bound_type=> measured_result=4.90
compound="CC(C)CCNc1ncnc2cc(N3CCN(c4ccc5c(NCCC(C)C)ncnc5c4)C(C)C3C)ccc12 (stereo not shown) [Compound 55]" endpoint=pEC50 bound_type== measured_result=6.30
